target: CviR (Chromobacterium violaceum); construct: Violacein was used as a measure of CviR activity in C. violaceum (CV026); endogenous in cells; experiment: cell-based; details: C. violaceum CV026, violacein; read-out: EC50 CviR in native host
Recorded EC50 values for a group of molecules are listed next.

MOLECULE | EC50
CCCCCCCC(=O)CC(=O)N[C@H]1CCOC1=O | > 100 µM
CCCCCCCCCCCCCCCC(=O)N[C@H]1CCOC1=O | > 100 µM
CCCCCCCCCCCC(=O)CC(=O)N[C@H]1CCOC1=O | > 100 µM
CCCCCCCCCCCC(=O)N[C@H]1CCOC1=O | > 100 µM
CCCCCCCCCC(=O)N[C@H]1CCOC1=O | > 100 µM
CC(O)CC(=O)N[C@H]1CCOC1=O (stereo partly drawn) | > 100 µM

Data provenance is paper PMC6401477.
